- protocol: clinical
- measurement.context: human, in vivo, 300 mg/6 ml, T1/2 (β), CF sputum; Respirgard II, high dose; β phase; Mean
observable: half-life (h)

| compound | observable | measured.result |
| --- | --- | --- |
| N=C(N)c1ccc(OCCCCCOc2ccc(C(=N)N)cc2)cc1 [Pentamidine, pentamidine] | half-life | 26.7 |

###

Reported decrease of the MIC by pentamidine values for the following compounds.
- Tested on: P. aeruginosa PAM1723 (MexAB-OprM overexpressed)
- Type: cell-based, Pseudomonas aeruginosa
- measurement.context: PAM1723; pentamidine 40 μg/ml

| molecular.string | unit.of.measure | decrease of the MIC by pentamidine |
| --- | --- | --- |
| O=C(N[C@H](CO)[C@H](O)c1ccc([N+](=O)[O-])cc1)C(Cl)Cl | fold | 16 |
| CC[C@H]1OC(=O)[C@H](C)[C@@H](O[C@H]2C[C@@](C)(OC)[C@@H](O)[C@H](C)O2)[C@H](C)[C@@H](O[C@@H]2O[C@H](C)C[C@H](N(C)C)[C@H]2O)[C@](C)(O)C[C@@H](C)C(=O)[C@H](C)[C@@H](O)[C@]1(C)O | fold | 4 |
| O=C(O)c1cn(C2CC2)c2cc(N3CCNCC3)c(F)cc2c1=O | fold | 8 |
| CC[C@H]1OC(=O)[C@H](C)[C@@H](O[C@H]2C[C@@](C)(OC)[C@@H](O)[C@H](C)O2)[C@H](C)[C@@H](O[C@@H]2O[C@H](C)C[C@H](N(C)C)[C@H]2O)[C@](C)(O)C[C@@H](C)CN(C)[C@H](C)[C@@H](O)[C@]1(C)O | fold | 64 |

###

- Test system: P. aeruginosa PAM1738 (nfxB, overexpressing MexCD-OprJ)
- protocol: microbe, parasite or virus in culture
- Type: cell-based, Pseudomonas aeruginosa
- measurement.context: PAM1738; inhibitor 2.5 μg/ml
We begin with a simple list: items and their reported Levofloxacin MIC in the presence of inhibitor.
observable: Levofloxacin MIC in the presence of inhibitor (µg/mL)

| molecular.string | unit.of.measure | measured.result |
| --- | --- | --- |
| N=C(N)c1ccc(OCCCOc2ccc(C(=N)N)cc2)cc1 | µg/mL | 0.5 |
| N=C(N)c1ccc(OCCCCCCOc2ccc(C(=N)N)cc2)cc1 | µg/mL | 0.5 |
| N=C(N)c1ccc(OCCCCCOc2ccc(C(=N)N)cc2)cc1 | µg/mL | 0.25 |
| N=C(N)c1ccc(OCCCOc2ccc(C(=N)N)cc2Br)c(Br)c1 | µg/mL | 0.25 |

###

- Test system: P. aeruginosa PAM1626 (lacks all the three efflux pumps)
- protocol: microbe, parasite or virus in culture
- Type: cell-based, Pseudomonas aeruginosa
- measurement.context: Pseudomonas aeruginosa, read-out: MIC* (MIC for the efflux pump inhibitor)
observable: MIC (µg/mL)

| molecular.string | target | observable | measured.result |
| --- | --- | --- | --- |
| N=C(N)c1ccc(OCCCCCCOc2ccc(C(=N)N)cc2)cc1 | P. aeruginosa PAM1626 (lacks all the three efflux pumps) | MIC | 2.5 |
| N=C(N)c1ccc(OCCCOc2ccc(C(=N)N)cc2Br)c(Br)c1 | P. aeruginosa PAM1626 (lacks all the three efflux pumps) | MIC | 5 |
| N=C(N)c1ccc(OCCCOc2ccc(C(=N)N)cc2)cc1 | P. aeruginosa PAM1626 (lacks all the three efflux pumps) | MIC | 10 |
| N=C(N)c1ccc(OCCCCCOc2ccc(C(=N)N)cc2)cc1 | P. aeruginosa PAM1626 (lacks all the three efflux pumps) | MIC | 10 |

###

- System: P. aeruginosa PAM1723 (nalB, overexpressing MexAB-OprM)
- protocol: microbe, parasite or virus in culture
- Type: cell-based, Pseudomonas aeruginosa
- measurement.context: PAM1723; inhibitor 5 μg/ml
- Experimental: Stock solutions were further diluted, according to the needs of a particular assay, in Mueller Hinton Broth (MHB). Stock solution was stored at −80° C. The checkerboard assay was performed in microtiter plates. […] Microtiter plates were incubated during 20 h at 35° C. and were read using a microtiterplate reader (Molecular Devices) at 650 nm as well as visual observation using a microtiter plate reading mirror. […]
observable: Levofloxacin MIC in the presence of inhibitor (µg/mL)

| molecular.string | unit.of.measure | measured.result |
| --- | --- | --- |
| Cl.Cl.N=C(N)c1cccc(NC(=O)Nc2cccc(C(=N)N)c2)c1 | µg/mL | 2 |
| N=C(N)c1ccc(OCCCOc2ccc(C(=N)N)cc2Br)c(Br)c1 | µg/mL | 0.5 |
| N=C(N)c1ccc(OCCCOc2ccc(C(=N)N)cc2)cc1 | µg/mL | 1 |
| N=C(N)c1ccc(OCCCCCCOc2ccc(C(=N)N)cc2)cc1 | µg/mL | 1 |
| N=C(N)c1ccc(/N=N/Nc2ccc(C(=N)N)cc2)cc1 | µg/mL | 1 |
| N=C(N)c1ccc(OCCCCCOc2ccc(C(=N)N)cc2)cc1 | µg/mL | 1 |

###

- protocol: clinical
- measurement.context: human, in vivo, AUC (0 to last non-BLQ)
observable: AUC(0-t) (ng·h/mL)

| molecular.string | measured.result |
| --- | --- |
| N=C(N)c1ccc(OCCCCCOc2ccc(C(=N)N)cc2)cc1 | 83000 |

###

- Test system: P. aeruginosa PAM1020 (wt, basal level of MexAB-OprM)
- protocol: Levofloxacin potentiation checkerboard assay (broth microdilution)
- Format: cell-based, Pseudomonas aeruginosa
- measurement.context: PAM1020; inhibitor 1.25 μg/ml
Measured Levofloxacin MIC in the presence of inhibitor of individual entries
observable: Levofloxacin MIC in the presence of inhibitor (µg/mL)

| compound | measured.result |
| --- | --- |
| N=C(N)c1ccc(OCCCOc2ccc(C(=N)N)cc2)cc1 [Propamidine, propamidine] | 0.25 |
| N=C(N)c1ccc(OCCCCCOc2ccc(C(=N)N)cc2)cc1 [Pentamidine, pentamidine] | 0.25 |
| N=C(N)c1ccc(OCCCOc2ccc(C(=N)N)cc2Br)c(Br)c1 [Dibromopropamidine, dibromopropamidine] | 0.25 |
| N=C(N)c1ccc(OCCCCCCOc2ccc(C(=N)N)cc2)cc1 [Hexamidine, hexamidine] | 0.125 |

###

- Tested on: P. aeruginosa PAM1753 (nfxC, overexpressing MexEF-OprN)
- protocol: Levofloxacin potentiation checkerboard assay (broth microdilution)
- Assay type: cell-based, Pseudomonas aeruginosa
- measurement.context: Pseudomonas aeruginosa, read-out: MIC* (MIC for the efflux pump inhibitor)

| compound | target | MIC / µg/mL |
| --- | --- | --- |
| N=C(N)c1ccc(OCCCCCCOc2ccc(C(=N)N)cc2)cc1 [Hexamidine, hexamidine] | P. aeruginosa PAM1753 (nfxC, overexpressing MexEF-OprN) | 20 |
| N=C(N)c1ccc(OCCCOc2ccc(C(=N)N)cc2)cc1 [Propamidine, propamidine] | P. aeruginosa PAM1753 (nfxC, overexpressing MexEF-OprN) | 5 |
| N=C(N)c1ccc(OCCCOc2ccc(C(=N)N)cc2Br)c(Br)c1 [Dibromopropamidine, dibromopropamidine] | P. aeruginosa PAM1753 (nfxC, overexpressing MexEF-OprN) | 20 |
| N=C(N)c1ccc(OCCCCCOc2ccc(C(=N)N)cc2)cc1 [Pentamidine, pentamidine] | P. aeruginosa PAM1753 (nfxC, overexpressing MexEF-OprN) | 40 |

###

- Tested on: P. aeruginosa PAM1738 (nfxB, overexpressing MexCD-OprJ)
- protocol: microbe, parasite or virus in culture
- Type: cell-based, Pseudomonas aeruginosa
- measurement.context: PAM1738; inhibitor 20 μg/ml
observable: Levofloxacin MIC in the presence of inhibitor

| molecular.string | measured.result |
| --- | --- |
| N=C(N)c1ccc(OCCCCCCOc2ccc(C(=N)N)cc2)cc1 | 0.015 µg/mL |
| N=C(N)c1ccc(OCCCCCOc2ccc(C(=N)N)cc2)cc1 | 0.125 µg/mL |
| N=C(N)c1ccc(OCCCOc2ccc(C(=N)N)cc2Br)c(Br)c1 | 0.03 µg/mL |
| N=C(N)c1ccc(OCCCOc2ccc(C(=N)N)cc2)cc1 | 0.015 µg/mL |

###

- protocol: clinical
- measurement.context: human, in vivo, Tmax (0 to 168)

| molecular.string | Tmax, h |
| --- | --- |
| N=C(N)c1ccc(OCCCCCOc2ccc(C(=N)N)cc2)cc1 | 1.8 |

###

Recorded MIC, Pentamidine (40 μg/ml), one value per entry.
- Tested on: P. aeruginosa PAM1723 (MexAB-OprM overexpressed)
- Type: cell-based, Pseudomonas aeruginosa
- measurement.context: PAM1723 (MexAB-OprM overexpressed); in the presence of pentamidine 40 μg/ml

| molecular.string | MIC, Pentamidine (40 μg/ml) |
| --- | --- |
| CC[C@H]1OC(=O)[C@H](C)[C@@H](O[C@H]2C[C@@](C)(OC)[C@@H](O)[C@H](C)O2)[C@H](C)[C@@H](O[C@@H]2O[C@H](C)C[C@H](N(C)C)[C@H]2O)[C@](C)(O)C[C@@H](C)C(=O)[C@H](C)[C@@H](O)[C@]1(C)O | 64 |
| CC[C@H]1OC(=O)[C@H](C)[C@@H](O[C@H]2C[C@@](C)(OC)[C@@H](O)[C@H](C)O2)[C@H](C)[C@@H](O[C@@H]2O[C@H](C)C[C@H](N(C)C)[C@H]2O)[C@](C)(O)C[C@@H](C)CN(C)[C@H](C)[C@@H](O)[C@]1(C)O | 1 |
| O=C(O)c1cn(C2CC2)c2cc(N3CCNCC3)c(F)cc2c1=O | 0.03 |
| O=C(N[C@H](CO)[C@H](O)c1ccc([N+](=O)[O-])cc1)C(Cl)Cl | 8 |
| NC[C@H]1O[C@H](O[C@H]2[C@H](O)[C@@H](O[C@H]3O[C@H](CO)[C@@H](O)[C@H](N)[C@H]3O)[C@H](N)C[C@@H]2N)[C@H](N)C[C@@H]1O | 0.03 |
